Target: UniProt:P21397
Sequence (P21397 whole entry): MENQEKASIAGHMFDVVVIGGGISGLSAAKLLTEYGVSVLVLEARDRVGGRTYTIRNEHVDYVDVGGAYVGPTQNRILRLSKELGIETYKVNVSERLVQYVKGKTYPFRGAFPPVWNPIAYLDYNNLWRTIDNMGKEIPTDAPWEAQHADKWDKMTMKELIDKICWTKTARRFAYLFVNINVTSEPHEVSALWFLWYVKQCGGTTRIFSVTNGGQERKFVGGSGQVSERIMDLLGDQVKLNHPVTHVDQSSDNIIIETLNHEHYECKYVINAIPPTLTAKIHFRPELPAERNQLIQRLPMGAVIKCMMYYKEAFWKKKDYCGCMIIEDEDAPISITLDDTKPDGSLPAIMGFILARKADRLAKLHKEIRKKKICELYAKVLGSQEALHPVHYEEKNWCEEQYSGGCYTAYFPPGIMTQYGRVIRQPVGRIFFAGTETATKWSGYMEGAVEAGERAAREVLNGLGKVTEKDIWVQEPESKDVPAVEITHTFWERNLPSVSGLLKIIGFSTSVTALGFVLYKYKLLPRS
Test: Inhibition of human MAO-A expressed in baculovirus infected BTI-TN-5B1-4 insect cells using p-tyramine as substrate assessed as hydrogen peroxide production by fluorimetric method
Quantity measured: IC50 (µM)
# number only, unit µM dropped from output

# Smiles notation, Target system, IC50 / µM
records = [
    ("C/C(=N\\Nc1nc(-c2ccccc2)c(C)s1)C1CCCCC1", "UniProt:P21397", 7.65),
    ("C/C(=N\\Nc1nc(-c2ccccc2)c(C)s1)c1nccs1", "UniProt:P21397", 6.52),
]

Which IC50 is reported for this molecule? CCCCC/C(C)=N\Nc1nc(-c2ccc3ccccc3c2)cs1 2.45

Which IC50 is reported for this molecule? C/C(=N\Nc1nc(-c2ccccc2)c(C)s1)c1ccccc1 2.24

Which IC50 is reported for this molecule? Cc1sc(NN=C2CCCCCCC2)nc1-c1ccccc1 7.07

Which IC50 is reported for this molecule? C/C(CC(C)C)=N/Nc1nc(-c2ccccc2)c(C)s1 2.4

Which IC50 is reported for this molecule? C/C(=N\Nc1nc(-c2ccc3ccccc3c2)cs1)C1CCCCC1 6.95

Which IC50 is reported for this molecule? C/C(=N\Nc1nc(-c2ccc3ccccc3c2)cs1)c1ccccc1 2
